conditions: in acetonitrile, 290.65 K
Value type: solubility (mole fraction)

| Smiles string | Recorded result |
| --- | --- |
| CC(C)C(=O)OCC(=O)[C@@]12O[C@H](C3CCCCC3)O[C@@H]1C[C@H]1[C@@H]3CCC4=CC(=O)C=C[C@]4(C)[C@H]3[C@@H](O)C[C@@]12C | 0.00739 |

---

conditions: in isopropanol, 280.65 K

| Smiles string | solubility (mole fraction) |
| --- | --- |
| CC(C)C(=O)OCC(=O)[C@@]12O[C@H](C3CCCCC3)O[C@@H]1C[C@H]1[C@@H]3CCC4=CC(=O)C=C[C@]4(C)[C@H]3[C@@H](O)C[C@@]12C | 0.00948 |
